- EXPERIMENT_SUMMARY: Trial B: pharmacokinetics following single doses in healthy young male subjects
- Format: in vivo, human
- CONDITION_DESCRIPTION: male, human, plasma; single oral dose of 2400 mg eslicarbazepine acetate; read-out: Mean AUC0-24 h
- Protocol: This human pharmacology trial was a study to determine the pharmacokinetics of eslicarbazepine acetate following single and repeated doses. The study integrated the results of three double-blind, randomized, placebo-controlled trials. […] The pharmacokinetics of eslicarbazepine acetate following repeated doses were measured by administering repeated oral doses ranging from 400 mg to 2400 mg of eslicarbazepine acetate to healthy young male subjects (6 subjects per dose) over a period of 8 days. […]
READOUT_NAME: AUC0-t (µg·h/mL)

{"COMPOUND": "NC(=O)N1c2ccccc2C[C@H](O)c2ccccc21 [eslicarbazepine]", "TEST_RESULT": 446}
